- EXPERIMENTAL_TARGET: T1, full length human DLL4 (human, UniProt Q9NR61 27-685)
- T1 construct: whole, on cells; also called native DLL4 expressed in HEK293 cells
- T1 sequence (Q9NR61 27-685): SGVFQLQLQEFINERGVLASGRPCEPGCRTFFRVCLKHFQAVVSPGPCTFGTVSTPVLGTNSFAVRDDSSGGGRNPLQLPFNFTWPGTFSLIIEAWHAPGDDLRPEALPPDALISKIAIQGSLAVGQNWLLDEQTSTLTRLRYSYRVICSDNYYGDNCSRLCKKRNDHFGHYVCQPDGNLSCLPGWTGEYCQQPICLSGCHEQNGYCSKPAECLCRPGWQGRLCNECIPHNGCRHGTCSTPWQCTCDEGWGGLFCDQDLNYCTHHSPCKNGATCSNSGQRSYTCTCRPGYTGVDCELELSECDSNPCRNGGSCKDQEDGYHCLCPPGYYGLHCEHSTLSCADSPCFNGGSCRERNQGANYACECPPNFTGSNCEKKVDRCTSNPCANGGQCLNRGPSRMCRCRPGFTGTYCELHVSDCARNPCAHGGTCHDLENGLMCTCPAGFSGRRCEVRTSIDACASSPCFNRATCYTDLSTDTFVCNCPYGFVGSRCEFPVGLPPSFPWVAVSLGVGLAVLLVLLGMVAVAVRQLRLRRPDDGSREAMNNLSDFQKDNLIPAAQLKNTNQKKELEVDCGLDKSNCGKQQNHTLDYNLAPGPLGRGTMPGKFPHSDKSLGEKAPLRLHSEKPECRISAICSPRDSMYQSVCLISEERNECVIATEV
- TEST_NAME: FACS competition, unlabeled antibody vs competitor Alexa-647 21H3RK, HEK293 cells with human DLL4
For each of the binders below, state its IC50.
Show the value, then the unit it is measured in.

Q. Entry 4B4 (antibody, IgG4, V domains shown, Fully human; used for IgG4 rows and where no isotype is printed; also called 4B4 IgG4; 4B4.1) VH: QVLLIQSGAEVKKPGASVQVSCKASGYTFTNYGVIWVRQAPGQGLEYMGWISAYNGNTNYAQKLQDRVTMTSDTSTTTAYMELRSLRSDDTAVYYCARELGSSFDYWGQGTLVTVSS VL: SYELTQPPSVSVSPGQTARITCSGDALPKKYAYWYQQKSGQAPVLVIYEDIKRPSGIPERFSGSSSGTMATLTISGAQVEDEADYYCFSTDNSGDHSVFGGGTKLTVL has what IC50?
A. 0.379 µg/mL

Q. Look up IC50: 9G8 (antibody, IgG4, V domains shown, Fully human; used for IgG4 rows and where no isotype is printed; also called 9G8 IgG4) VH: QLQLQESGPGLVKPSETLSLSCTVSGGSISSSSSYWGLIRQPPGKGLEWIGSIYYSGSTYYSPSLKSRVSISVDTSKNQFSLKLSSVTAADTAVYFCARQGYGGHPDVFDIWGQGTMVTVSS VL: SSELTQSPSVSVSPGQTARITCSGDKLGDVYVCWYQQKTGQSPVLVIYEDTKRPSGIPERFSGSNSGNTATLTISGTQVMDEADYYCQAWDSTTAVIFGGGTKLTVL
A. 0.596 µg/mL

Turning to the following binder.
Q. Sample 2H10 (antibody, IgG4, V domains shown, Fully human; used for IgG4 rows and where no isotype is printed; also called 2H10 IgG4) VH: QVQLVESGGGVVQPGRSLRLSCAASGFTFSRHGMHWVRQAPGKGLEWVAVVWFDGSNIYYADSVKGRFTISRDNSKNTLYLQMNSLRAEDTAMYYCARDSRIAAADYWGQGTLVTVSS VL: SYELTQPPSVSVSPGQTVSITCSGDKLGDKYVCWYQQKPGQSPVLVIYQESKRPSGIPERFSGSSSGNTATLTISGTQAMDEADYYCQTWDSSLVVFGGGTKLTVL — what was its IC50?
A. 0.723 µg/mL
